# protocol_text: Selectivity index, ratio of CC50 for human Huh7.5.1 cells to EC50 for DENV infected in human Huh7.5.1 cells
# Assay type: toxicity, cell-based
# recorded_conditions: read-out: Ratio CC50/EC50
property: selectivity ratio

Exam item: State, in one line, measured selectivity ratio of CCN(CC)c1ccc(Oc2ccc(-c3[nH]c4cccc(F)c4c(=O)c3C)cc2F)cc1
Marked response: > 357

====

# protocol_text: Inhibition of C-terminal 6-His tagged recombinant human DHODH N-terminal domain delta29 mutant expressed in Escherichia coli BL21(DE3) using dihydroorotate as substrate measured every 30 secs for 6 mins by DCIP dye based assay
property: pIC50
Answers are plain numbers, as −log10 of the molar value.

chemical_string=C#CCCC1(CCN(CC)c2ccc(Oc3ccc(-c4nc5cccc(F)c5c(OC)c4C)cc3F)cc2)N=N1 property=pIC50 reading=5.99

Quick request: pIC50 for each listed item, please.
1. CCN(CC)c1ccc(Oc2ccc(-c3[nH]c4cccc(F)c4c(=O)c3C)cc2F)cc1
2. C#CCCC1(CCN(CC)c2ccc(Oc3ccc(-c4[nH]c5cccc(F)c5c(=O)c4C)cc3F)cc2)N=N1

Marked response:
7.22
6.60

====

# protocol_text: Selectivity index, ratio of CC50 for African green monkey Vero cells to EC50 for SFTSV infected in African green monkey Vero cells
# Type: toxicity
# recorded_conditions: read-out: Ratio CC50/EC50
property: selectivity ratio

Exam item: State, in one line, measured selectivity ratio of CCN(CC)c1ccc(Oc2ccc(-c3[nH]c4cccc(F)c4c(=O)c3C)cc2F)cc1
Marked response: > 8

====

Provide the reported EC50 of each item.
# Test system: Hepatitis C virus
# protocol_text: Antiviral activity against EGFP-fused HCV JFH-1 harboring K78E/E2-G451R/NS3-M260K/NS5A-T462I mutant infected in human Huh7.5.1 cells assessed as reduction in viral RNA level after 2 days by qRT-PCR analysis
# Type: functional, organism-based, Hepacivirus hominis
# recorded_conditions: JFH-1, Huh-7.5.1, 48 h
Numbers only, in nM.

Worked examples, 2 molecules total:
chemical_string=Cc1c(-c2ccc(Cc3ccc(OC(F)F)cc3)cc2)[nH]c2cccc(F)c2c1=O reading=1010
chemical_string=Cc1c(-c2ccc(Oc3ccc(N(C)C)cc3)c(F)c2)[nH]c2cccc(F)c2c1=O reading=1050

Exam item: State, in one line, measured EC50 of Cc1c(-c2ccc(Cc3ccc(OCC(F)(F)F)cc3)cc2)[nH]c2cccc(F)c2c1=O
Marked response: 840

====

Provide the reported pEC50 of each item.
# Tested on: Hepatitis C virus
# protocol_text: Antiviral activity against EGFP-fused HCV JFH-1 harboring K78E/E2-G451R/NS3-M260K/NS5A-T462I mutant infected in human Huh7.5.1 cells assessed as reduction in viral RNA level after 2 days by qRT-PCR analysis
# Assay type: functional, organism-based, Hepacivirus hominis
# recorded_conditions: JFH-1, Huh-7.5.1, 48 h
Numbers only, as −log10 of the molar value.

Quick request: pEC50 for each listed item, please.
1. Cc1c(-c2ccc(CNC(=O)c3ccc(SC(F)(F)F)cc3)cc2)[nH]c2cccc(F)c2c1=O
2. Cc1c(-c2ccc(Cc3ccc(SC(F)(F)F)cc3)cc2)[nH]c2c(F)cccc2c1=O
3. Cc1c(-c2ccc(Cc3ccc(Cl)cc3)cc2)[nH]c2cccc(F)c2c1=O
4. Cc1c(-c2ccc(Oc3ccc(SC(F)(F)F)cc3)c(F)c2)[nH]c2cccc(F)c2c1=O

Marked response:
1. 4.96
2. 5.73
3. 5.36
4. 6.44

Exam item: State, in one line, measured pEC50 of Cc1c(-c2ccc(Cc3ccc(S(F)(F)(F)(F)F)cc3)cc2)[nH]c2cccc(F)c2c1=O
Marked response: 6.14

====

# protocol_text: Selectivity index, ratio of CC50 for human Huh7.5.1 cells to EC50 for EGFP-fused HCV JFH-1 harboring K78E/E2-G451R/NS3-M260K/NS5A-T462I mutant infected in human Huh7.5.1 cells
# Assay type: toxicity, cell-based
# recorded_conditions: read-out: Ratio CC50/EC50
property: selectivity ratio

compound="CN=S(=O)(c1ccc(Cc2ccc(-c3[nH]c4cccc(F)c4c(=O)c3C)cc2)cc1)C(F)(F)F (configuration not stated)" reading="> 2"
compound=Cc1c(-c2ccc(Oc3ccc(N4CCCC4)cc3)c(F)c2)[nH]c2cccc(F)c2c1=O reading="> 285"
compound=Cc1c(-c2ccc(Cc3ccc(SC(F)(F)F)cc3)cc2)[nH]c2c(F)cccc2c1=O reading="> 3"
compound=Cc1c(-c2ccc(CNC(=O)c3ccc(SC(F)(F)F)cc3)cc2)[nH]c2cccc(F)c2c1=O reading="> 5"
compound=CCN(CC)c1ccc(Oc2ccc(-c3[nH]c4cccc(F)c4c(=O)c3C)cc2F)cc1 reading="> 416"

Quick request: selectivity ratio for each listed item, please.
1. Cc1c(-c2ccc(Cc3ccc([S+]([O-])C(F)(F)F)cc3)cc2)[nH]c2cccc(F)c2c1=O (configuration not stated)
2. CCCN(CC)c1ccc(Oc2ccc(-c3[nH]c4cccc(F)c4c(=O)c3C)cc2F)cc1

Marked response:
> 7
> 151

====

Provide the reported selectivity ratio of each item.
# protocol_text: Selectivity index, ratio of CC50 for human Huh7.5.1 cells to EC50 for EGFP-fused HCV JFH-1 harboring K78E/E2-G451R/NS3-M260K/NS5A-T462I mutant infected in human Huh7.5.1 cells
# Format: toxicity, cell-based
# recorded_conditions: read-out: Ratio CC50/EC50

Worked examples, 5 compounds total:
compound="Cc1c(-c2ccc(Cc3ccc(C(C)(O)C(F)(F)F)cc3)cc2)[nH]c2cccc(F)c2c1=O (stereo unspecified)" reading="> 23"
compound=Cc1c(-c2ccc(Cc3ccc(SC(F)(F)F)cc3)cc2)[nH]c2cc(F)ccc2c1=O reading="> 5"
compound=Cc1c(-c2ccc(Oc3ccc(N4CCNCC4)cc3)c(F)c2)[nH]c2cccc(F)c2c1=O reading="> 4"
compound=COc1ccc(Cc2ccc(-c3[nH]c4cccc(F)c4c(=O)c3C)cc2)cc1 reading="> 5"
compound=CCNc1ccc(Oc2ccc(-c3[nH]c4cccc(F)c4c(=O)c3C)cc2F)cc1 reading="> 58"

Consider the record given below.
Exam item: State, in one line, measured selectivity ratio of Cc1c(-c2ccc(Cc3ccc(S(=N)(=O)C(F)(F)F)cc3)cc2)[nH]c2cccc(F)c2c1=O (stereo unspecified)
Marked response: > 7

====

# protocol_text: Cytotoxicity against human Huh7.5.1 cells assessed as decrease in cell viability after 48 hrs by WST1 assay
# Assay type: cell-based
property: CC50 at 48 h

Worked examples, 8 compounds total:
compound=Cc1c(-c2ccc(Cc3ccc(S(=O)(=O)C(F)(F)F)cc3)cc2)[nH]c2cccc(F)c2c1=O reading="> 2.5 µM"
compound=Cc1c(-c2ccc(Oc3ccc(N4CCCCC4)cc3)c(F)c2)[nH]c2cccc(F)c2c1=O reading="> 10 µM"
compound="CN=S(=O)(c1ccc(Cc2ccc(-c3[nH]c4cccc(F)c4c(=O)c3C)cc2)cc1)C(F)(F)F (stereo not drawn)" reading="> 10 µM"
compound=Cc1c(-c2ccc(OCCN3CCCCC3)cc2)[nH]c2cccc(F)c2c1=O reading="> 100 µM"
compound=Cc1c(-c2ccc(Cc3ccc(OC(F)(F)F)cc3)cc2)[nH]c2cccc(F)c2c1=O reading="> 10 µM"
compound=Cc1c(-c2ccc(Cc3ccc(C(C)(C)C)cc3)cc2)[nH]c2cccc(F)c2c1=O reading="> 5 µM"
compound="Cc1c(-c2ccc(Cc3ccc(C(C)(O)C(F)(F)F)cc3)cc2)[nH]c2cccc(F)c2c1=O (stereo not drawn)" reading="> 2.5 µM"
compound=Cc1c(-c2ccc(Cc3ccc(OCC(F)(F)F)cc3)cc2)[nH]c2cccc(F)c2c1=O reading="> 5 µM"

Quick request: CC50 at 48 h for each listed item, please.
1. Cc1c(-c2ccc(Oc3ccc(N4CCCC4)cc3)c(F)c2)[nH]c2cccc(F)c2c1=O
2. Cc1c(-c2ccc(CNC(=O)c3ccc(SC(F)(F)F)cc3)cc2)[nH]c2cccc(F)c2c1=O
3. Cc1c(-c2ccc(-c3ccc(SC(F)(F)F)cc3)cc2)[nH]c2cccc(F)c2c1=O
4. Cc1c(-c2ccc(COc3ccc(SC(F)(F)F)cc3)cc2)[nH]c2cccc(F)c2c1=O
5. Cc1c(-c2ccc(Cc3ccc(SC(F)(F)F)cc3)cc2)[nH]c2ccc(F)cc2c1=O

Marked response:
1: > 10 µM; 2: > 50 µM; 3: > 10 µM; 4: > 10 µM; 5: > 10 µM
